All values here come from patent US12570638B2.

# Experimental target: AHR (Homo sapiens)
# Construct: other cell line with a DRE-luciferase reporter stably transfected; endogenous in cells
# Sequence (P35869 11-848): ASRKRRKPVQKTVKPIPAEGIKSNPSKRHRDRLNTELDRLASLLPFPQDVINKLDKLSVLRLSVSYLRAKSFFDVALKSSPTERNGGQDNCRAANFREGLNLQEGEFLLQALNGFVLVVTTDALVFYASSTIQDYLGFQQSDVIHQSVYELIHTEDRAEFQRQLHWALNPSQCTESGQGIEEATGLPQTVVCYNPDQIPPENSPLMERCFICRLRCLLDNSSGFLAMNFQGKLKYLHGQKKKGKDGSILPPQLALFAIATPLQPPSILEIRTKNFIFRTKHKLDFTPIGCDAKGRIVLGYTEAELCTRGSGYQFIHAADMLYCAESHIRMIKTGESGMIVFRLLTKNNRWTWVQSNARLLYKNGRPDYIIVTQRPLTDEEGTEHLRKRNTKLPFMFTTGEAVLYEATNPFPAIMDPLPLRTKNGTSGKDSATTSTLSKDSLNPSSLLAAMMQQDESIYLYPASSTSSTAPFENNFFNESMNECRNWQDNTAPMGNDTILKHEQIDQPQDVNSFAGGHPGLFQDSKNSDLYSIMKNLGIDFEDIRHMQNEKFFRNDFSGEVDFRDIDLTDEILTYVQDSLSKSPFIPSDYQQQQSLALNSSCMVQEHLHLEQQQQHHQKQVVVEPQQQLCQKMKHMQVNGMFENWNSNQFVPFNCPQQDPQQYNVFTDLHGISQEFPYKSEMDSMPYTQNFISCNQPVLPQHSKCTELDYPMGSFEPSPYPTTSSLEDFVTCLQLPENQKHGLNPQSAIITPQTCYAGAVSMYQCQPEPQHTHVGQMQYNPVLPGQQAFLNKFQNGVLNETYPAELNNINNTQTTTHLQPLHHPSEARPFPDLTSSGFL
# Assay overview: DRE-Luciferase Reporter Assay (HepG2 AhR-Lucia reporter cells)
# Run parameters: luciferase activity with AHR activating ligand at EC50, read-out: HepG2-Luc IC50
pIC50: −log10 of the molar value.
Kindly supply the reported pIC50 values for the records listed here.

// query # lookup: pIC50 of Cn1ncnc1C(=O)Nc1ccc2nc(-c3ccccc3C(F)F)[nH]c2c1 [D]
// result > 7.00

// query # lookup: pIC50 of Cn1nccc1C(=O)Nc1ccc2nc(-c3ccccc3C(F)F)[nH]c2c1 [Compound C]
// result 6.30 to 7.00

// query # lookup: pIC50 of Cc1ccccc1-c1nc2ccc(NC(=O)c3ncnn3C)cc2[nH]1 [G]
// result 6.30 to 7.00

// query # lookup: pIC50 of Cn1ncnc1C(=O)Nc1ccc2nc(-c3ccccc3C(F)(F)F)[nH]c2c1 [Compound H]
// result > 7.00

// query # lookup: pIC50 of Cc1ccccc1-c1nc2ccc(NC(=O)c3ccnn3C)cc2[nH]1 [B]
// result 6.30 to 7.00

// query # lookup: pIC50 of Cn1nccc1C(=O)Nc1ccc2nc(-c3ccccc3C(F)(F)F)[nH]c2c1 [A]
// result 6.30 to 7.00

---

# Assay overview: Hepatocyte Stability Assay, rat
# Assay type: in vitro ADME
# Run parameters: cryopreserved hepatocytes, read-out: Rat hepatocyte clearance
# Method: Preparation of working solutions: 10 mM stock solutions of test compound and positive control were prepared in DMSO. […] Preparation of Hepatocytes: Incubation medium (William's E Medium supplemented with GlutaMAX) and hepatocyte thawing medium were placed in a 37° C. water bath and allowed warming for at least 15 minutes prior to use. […] Using an AO/PI Staining, cells were counted and the viable cell density was determined. […]
Measured quantity: CLint scaled at 1 μM

// query # lookup: CLint scaled at 1 μM of Cn1ncnc1C(=O)Nc1ccc2nc(-c3ccccc3C(F)(F)F)[nH]c2c1 [Compound H]
// result < 20 mL/min/kg

---

Kindly supply the reported CLint scaled at 1 μM values for the records listed here.
# Assay overview: Hepatocyte Stability Assay, human
# Format: in vitro ADME
# Run parameters: cryopreserved hepatocytes, read-out: Human hepatocyte clearance

// query # lookup: CLint scaled at 1 μM of Cn1ncnc1C(=O)Nc1ccc2nc(-c3ccccc3C(F)(F)F)[nH]c2c1
// result < 20 mL/min/kg

// query # lookup: CLint scaled at 1 μM of Cn1nccc1C(=O)Nc1ccc2nc(-c3ccccc3C(F)(F)F)[nH]c2c1
// result < 20 mL/min/kg

---

# Assay overview: Liver Microsome Stability Assay, human
# Type: in vitro ADME
# Run parameters: human liver microsomes, with NADPH, 1 μM compound, read-out: Human liver microsome clearance
Measured quantity: CLint scaled at 1 μM

// query # lookup: CLint scaled at 1 μM of Cn1nccc1C(=O)Nc1ccc2nc(-c3ccccc3C(F)(F)F)[nH]c2c1
// result < 10 mL/min/kg

// query # lookup: CLint scaled at 1 μM of Cn1nccc1C(=O)Nc1ccc2nc(-c3ccccc3C(F)F)[nH]c2c1
// result < 10 mL/min/kg

// query # lookup: CLint scaled at 1 μM of Cn1ncnc1C(=O)Nc1ccc2nc(-c3ccccc3C(F)(F)F)[nH]c2c1
// result < 10 mL/min/kg

---

Kindly supply the reported solubility at 2 h values for the records listed here.
# Assay overview: Solubility Determination Assay (PBS, LC-MS/MS)
# Type: physicochemical
# Run parameters: aqueous buffer, kinetic from dmso stock, PBS pH 7.4, 25° C., read-out: Aq. Solubility at pH = 7.4

// query # lookup: solubility at 2 h of Cn1nccc1C(=O)Nc1ccc2nc(-c3ccccc3C(F)F)[nH]c2c1 [Compound C]
// result 1 to 10 µM

// query # lookup: solubility at 2 h of Cn1ncnc1C(=O)Nc1ccc2nc(-c3ccccc3C(F)F)[nH]c2c1 [D]
// result 1 to 10 µM

// query # lookup: solubility at 2 h of Cn1nccc1C(=O)Nc1ccc2nc(-c3ccccc3C(F)(F)F)[nH]c2c1 [A]
// result > 10 µM

// query # lookup: solubility at 2 h of Cn1ncnc1C(=O)Nc1ccc2nc(-c3ccccc3C(F)(F)F)[nH]c2c1 [Compound H]
// result 1 to 10 µM
